Assay: Inhibition of mouse PDL1 in mouse splenocytes assessed as rescue of splenocyte effector function
quantity-kind: pEC50
Give bare numbers, as −log10 of the molar value.

Asked: Bench note: what pEC50 did C[C@@H](O)[C@H](NC(=O)N[C@@H](CC(N)=O)C(=O)NNC(=O)[C@@H](N)CO)C(=O)O show?
Given back: 7.52

* * *

Assay: Inhibition of mouse PDL2 in mouse splenocytes assessed as rescue of splenocyte effector function
quantity-kind: EC50 (nM)
One number for each entry, in nM.

Asked: Can you look up the measured EC50 of C[C@@H](O)[C@H](NC(=O)N[C@@H](CC(N)=O)C(=O)NNC(=O)[C@@H](N)CO)C(=O)O for me?
Given back: 40
